Test system: SGC-7901
Test: Cytotoxicity against human SGC7901 cells after 48 hrs by MTT assay
Format: functional, cell-based
Conditions: SGC-7901, 48 h
The label Y is reserved for IC50 strictly under 30 µM; N covers values equal to or above it.

Would you please look over these solved cases?
CCOC(=O)[C@]1(C)CCC[C@@]2(C)[C@@H]3CC[C@@]4(C)C[C@]3(CC[C@@H]21)c1cn(C(=S)Nc2ccccc2Cl)nc14 = Y
CCOC(=O)[C@]1(C)CCC[C@@]2(C)[C@@H]3CC[C@@]4(C)C[C@]3(CC[C@@H]21)[C@@H]1CON(C(=S)Nc2ccccc2F)[C@@H]14 = Y
CCOC(=O)[C@]1(C)CCC[C@@]2(C)[C@@H]3CC[C@@]4(C)C[C@]3(CC[C@@H]21)c1cn(C(=S)Nc2ccc(Br)cc2)nc14 = Y

Q. Record CCOC(=O)[C@]1(C)CCC[C@@]2(C)[C@@H]3CC[C@@]4(C)C[C@]3(CC[C@@H]21)c1cn(C(=S)Nc2ccc([N+](=O)[O-])cc2)nc14 : is its IC50 strictly below 30 µM?
A. N

Q. Bench note: check whether CCOC(=O)[C@]1(C)CCC[C@@]2(C)[C@@H]3CC[C@@]4(C)C[C@]3(CC[C@@H]21)c1cn(C(=S)Nc2ccccc2)nc14 shows IC50 below 30 µM
A. Y

Q. Item CCOC(=O)[C@]1(C)CCC[C@@]2(C)[C@@H]3CC[C@@]4(C)C[C@]3(CC[C@@H]21)c1cn(C(=S)Nc2ccccc2[N+](=O)[O-])nc14 : IC50 beneath 30 µM, strictly?
A. Y

* * *

Record form. Attribute: IC50. Fill in for each entry.
Tested on: SGC-7901
Experiment: Cytotoxicity against human SGC7901 cells after 48 hrs by MTT assay
Assay type: functional, cell-based
Settings: SGC-7901, 48 h

Sample answers from the record:
CCOC(=O)[C@]1(C)CCC[C@@]2(C)[C@@H]3CC[C@@]4(C)C[C@]3(CC[C@@H]21)[C@@H]1CON(C(=S)Nc2cccc(Cl)c2)[C@@H]14 = > 50 µM
CCOC(=O)[C@]1(C)CCC[C@@]2(C)[C@@H]3CC[C@@]4(C)C[C@]3(CC[C@@H]21)c1cn(C(=S)Nc2cccc(Cl)c2)nc14 = 16.9 µM
CCOC(=O)[C@]1(C)CCC[C@@]2(C)[C@@H]3CC[C@@]4(C)C[C@]3(CC[C@@H]21)[C@@H]1CON(C(=S)Nc2cccc(F)c2)[C@@H]14 = > 50 µM

Now for the compound whose IC50 we want.
Q. Write down IC50 measured for item CCOC(=O)[C@]1(C)CCC[C@@]2(C)[C@@H]3CC[C@@]4(C)C[C@]3(CC[C@@H]21)c1cn(C(=S)Nc2ccc(Cl)cc2Cl)nc14
A. 20.1 µM

* * *

Please provide measured pIC50 for the entries that follow.
Test system: SGC-7901
Experiment: Cytotoxicity against human SGC7901 cells after 48 hrs by MTT assay
Type: functional, cell-based
Conditions: SGC-7901, 48 h
Give bare numbers, as −log10 of the molar value.

// worked examples, pIC50 included
CCOC(=O)[C@]1(C)CCC[C@@]2(C)[C@@H]3CC[C@@]4(C)C[C@]3(CC[C@@H]21)c1cn(C(=S)Nc2cccc(C)c2)nc14 = 4.82
CCOC(=O)[C@]1(C)CCC[C@@]2(C)[C@@H]3CC[C@@]4(C)C[C@]3(CC[C@@H]21)[C@@H]1CON(C(=S)Nc2ccccc2C)[C@@H]14 = 4.42

From here, focus on the item given below.
Q. Identify the reported pIC50 for the following entry. CCOC(=O)[C@]1(C)CCC[C@@]2(C)[C@@H]3CC[C@@]4(C)C[C@]3(CC[C@@H]21)c1cn(C(=S)Nc2cccc(F)c2)nc14
A. 4.71
